Subject Of Test: T1, dog serum albumin (dog, UniProt P49822 25-608)
T1 construct: Bought protein, immobilized on a CM5 chip by amine coupling; also called Dog SA
Test Method Notes: SPR (Biacore 8K), albumin immobilized on CM5 chip, 25 C, 1:1 kinetic fit
Quantity Kind: koff (s⁻¹)
Give just the number in s⁻¹; leave the unit off.

I'd like to know its koff. The binder in question is RLN Analog 10 (other, Single-chain fusion: RLN2 B chain (desB1) - L2 - RLN2 A chain - (PGPQ)8 L1 - VHH (C-terminal)) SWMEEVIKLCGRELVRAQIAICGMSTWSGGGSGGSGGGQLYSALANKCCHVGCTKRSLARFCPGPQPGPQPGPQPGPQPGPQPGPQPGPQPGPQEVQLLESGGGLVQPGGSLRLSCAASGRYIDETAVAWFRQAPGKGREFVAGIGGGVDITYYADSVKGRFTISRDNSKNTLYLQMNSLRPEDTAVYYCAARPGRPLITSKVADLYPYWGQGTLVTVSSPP
0.0021

I'd like to know its koff. The binder in question is RLN Analog 6 (other, Single-chain fusion: RLN2 B chain (desB1) - L2 - RLN2 A chain - PGPQ-repeat L1 - VHH (C-terminal)) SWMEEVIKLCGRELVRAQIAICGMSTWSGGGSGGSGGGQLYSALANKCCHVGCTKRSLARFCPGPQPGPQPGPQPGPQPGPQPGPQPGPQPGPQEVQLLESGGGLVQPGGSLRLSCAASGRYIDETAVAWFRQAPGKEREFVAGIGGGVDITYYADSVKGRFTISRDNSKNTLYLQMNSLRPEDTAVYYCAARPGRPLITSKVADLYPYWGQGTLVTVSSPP
0.002

I'd like to know its koff. The binder in question is RLN Analog 7 (other, Single-chain fusion: VHH - (G4Q)5 L1 - RLN2 B chain (desB1) - L2 - RLN2 A chain) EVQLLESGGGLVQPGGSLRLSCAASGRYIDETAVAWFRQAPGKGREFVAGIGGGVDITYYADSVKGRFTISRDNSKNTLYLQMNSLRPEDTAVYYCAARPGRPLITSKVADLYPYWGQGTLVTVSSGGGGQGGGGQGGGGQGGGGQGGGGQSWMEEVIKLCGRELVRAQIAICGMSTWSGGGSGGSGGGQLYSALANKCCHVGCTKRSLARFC
0.0015

I'd like to know its koff. The binder in question is RLN Analog 5 (other, Single-chain fusion: RLN2 B chain (desB1) - L2 - RLN2 A chain - (G4Q)5 L1 - VHH (C-terminal)) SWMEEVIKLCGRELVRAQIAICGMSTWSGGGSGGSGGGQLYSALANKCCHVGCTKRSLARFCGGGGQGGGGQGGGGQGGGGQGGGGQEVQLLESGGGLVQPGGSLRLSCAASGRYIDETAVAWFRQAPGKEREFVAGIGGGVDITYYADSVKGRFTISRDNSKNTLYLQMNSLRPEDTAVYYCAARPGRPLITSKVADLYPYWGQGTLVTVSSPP
0.0034

I'd like to know its koff. The binder in question is RLN Analog 3 (other, Single-chain fusion: VHH - (G4Q)5 L1 - RLN2 B chain (desB1) - L2 - RLN2 A chain) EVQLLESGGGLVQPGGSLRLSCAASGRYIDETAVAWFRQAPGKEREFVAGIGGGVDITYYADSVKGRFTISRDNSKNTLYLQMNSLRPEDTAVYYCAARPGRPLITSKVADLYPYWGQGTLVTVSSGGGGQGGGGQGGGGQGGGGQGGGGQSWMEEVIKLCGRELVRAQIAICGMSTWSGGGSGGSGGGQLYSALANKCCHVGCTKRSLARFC
0.0014

I'd like to know its koff. The binder in question is RLN Analog 14 (other, Single-chain fusion: VHH - (PGPQ)8 L1 - RLN2 A chain (desA1-4) - L2 - RLN2 B chain (desB1)) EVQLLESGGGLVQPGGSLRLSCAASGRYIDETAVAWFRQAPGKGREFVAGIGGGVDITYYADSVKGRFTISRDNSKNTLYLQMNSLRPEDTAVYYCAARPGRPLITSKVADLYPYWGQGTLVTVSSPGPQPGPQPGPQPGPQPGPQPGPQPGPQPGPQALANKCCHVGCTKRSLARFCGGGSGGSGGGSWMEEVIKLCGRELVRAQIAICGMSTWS
0.0017

I'd like to know its koff. The binder in question is RLN Analog 13 (other, Single-chain fusion: VHH - (G4Q)5 L1 - RLN2 A chain (desA1-4) - L2 - RLN2 B chain (desB1)) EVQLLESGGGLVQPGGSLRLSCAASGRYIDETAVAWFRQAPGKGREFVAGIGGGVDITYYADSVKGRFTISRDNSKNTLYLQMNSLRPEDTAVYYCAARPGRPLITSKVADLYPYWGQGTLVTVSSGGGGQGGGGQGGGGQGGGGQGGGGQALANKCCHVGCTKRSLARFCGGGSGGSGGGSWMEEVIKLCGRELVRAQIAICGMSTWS
0.0017

I'd like to know its koff. The binder in question is RLN Analog 1 (other) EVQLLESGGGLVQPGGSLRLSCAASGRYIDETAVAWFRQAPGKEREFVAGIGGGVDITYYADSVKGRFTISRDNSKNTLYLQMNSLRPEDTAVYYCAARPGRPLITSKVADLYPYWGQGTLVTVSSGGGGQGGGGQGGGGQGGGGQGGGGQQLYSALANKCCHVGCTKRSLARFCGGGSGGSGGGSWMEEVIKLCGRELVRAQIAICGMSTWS
0.0015

I'd like to know its koff. The binder in question is RLN Analog 4 (other, Single-chain fusion: VHH - (PGPQ)8 L1 - RLN2 B chain (desB1) - L2 - RLN2 A chain) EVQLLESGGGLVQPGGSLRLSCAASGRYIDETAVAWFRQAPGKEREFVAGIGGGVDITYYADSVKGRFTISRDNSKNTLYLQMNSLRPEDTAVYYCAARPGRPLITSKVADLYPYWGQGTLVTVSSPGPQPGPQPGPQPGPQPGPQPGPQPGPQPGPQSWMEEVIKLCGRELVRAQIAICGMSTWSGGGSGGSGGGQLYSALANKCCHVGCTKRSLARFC
0.0014

I'd like to know its koff. The binder in question is RLN Analog 8 (other, Single-chain fusion: VHH - (PGPQ)8 L1 - RLN2 B chain (desB1) - L2 - RLN2 A chain) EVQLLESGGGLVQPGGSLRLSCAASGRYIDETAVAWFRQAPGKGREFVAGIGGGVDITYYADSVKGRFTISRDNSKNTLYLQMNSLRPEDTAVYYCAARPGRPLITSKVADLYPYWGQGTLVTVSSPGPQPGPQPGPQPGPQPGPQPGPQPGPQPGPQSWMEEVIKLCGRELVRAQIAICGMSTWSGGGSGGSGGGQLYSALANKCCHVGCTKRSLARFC
0.0015

I'd like to know its koff. The binder in question is RLN Analog 12 (other, Single-chain fusion: VHH - (G4Q)5 L1 - RLN2 B chain (desB1) - L2 of thirteen residues - RLN2 A chain (desA1-4)) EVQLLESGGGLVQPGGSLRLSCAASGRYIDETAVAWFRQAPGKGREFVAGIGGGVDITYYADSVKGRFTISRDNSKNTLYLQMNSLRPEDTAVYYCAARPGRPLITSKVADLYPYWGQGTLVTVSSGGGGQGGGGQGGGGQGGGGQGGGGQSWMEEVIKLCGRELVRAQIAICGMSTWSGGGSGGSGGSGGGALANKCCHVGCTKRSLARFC
0.0016
